# Test system: NIH3T3
# protocol_description: qHTS assay to identify novel small-molecules to repurpose for Merkel cell carcinoma treatment (AID 1296009); note: nearly all actives have a fitted effect of over 60% in size
# condition_parameters: MCC and control cell lines, CellTiter-Glo viability, 72 h; at 44.8 µM (top of the series) unless noted
Records with an inconclusive call do not appear. Activity calls are given as the source filed them. Calls come from the whole dose curve; as a rule, active = well fitted inhibition curve with a large enough effect; inconclusive = small, poorly fitted or top-dose-only effect; inactive = flat fitted curve, though single readings scatter.
observation_type: outcome

Study these solved cases before continuing.
| molecule | outcome |
| --- | --- |
| CC(C)CC(=O)OC[C@H]1O[C@@](COC(=O)CC(C)C)(O[C@H]2O[C@H](CO)[C@@H](O)[C@H](O)[C@H]2O)[C@@H](OC(=O)CC(C)C)[C@@H]1OC(=O)CC(C)C | inactive [at 17.4 µM] |
| C=C1CCC2(OC1)OC1CC3C4CC=C5CC(O)CC(O[C@@H]6OC[C@@H](O)[C@H](O)[C@H]6O)C5(C)C4CCC3(C)C1(O)C2C (some centres not stated) | inactive [at 17.4 µM] |
| CC1(C)OC(=O)C(OCC2CC2)=C1c1ccc(S(C)(=O)=O)cc1 | inactive |
| CC(NCc1ccc(OCc2cccc(F)c2)cc1)C(N)=O (configuration not stated) | inactive |
| CO[C@@]12CC3[C@@H]([C@@H](O)[C@@H](OC(C)=O)C4[C@](C)(COC(C)=O)CCC[C@]34C)[C@@H](C)C1=CC(=O)O2 (some centres not stated) | inactive [at 17.4 µM] |

Moving on to another molecule below.
# return recorded outcome for entry `CC[C@@H](c1ccc(F)c(F)c1)n1c(C(=O)OC)c(-c2ccno2)[nH]c1=S`
inactive

Attribution: PubChem BioAssay (NCATS)
